# assayed system: T1, monkey CD19 on HEK293T-monkey CD19 cells (monkey)
# T1 construct: whole, on cells
# method summary: FACS on HEK293T-monkey CD19 cells
recorded endpoint: Maximum mean fluorescence intensity

1) F4.107.12 (antibody, human IgG1, V domains shown, human-murine chimeric antibody, human IgG1) VH: EVQLQQSGPELVKPGASVKMSCKASGYTFTSYVLHWVRQKPGQGLEWIGYFNPYNDGTEYNEKFKGKAILTSDKSSSTAYMELNSLTSEDSAVYYCVGGTYYYGSSYPFAYWGQGTLVTVST VL: DVVMTQISLSLPVSLGDQASISCRSSQSLIHSNGNTYLQWYLQKPGQSPKLLIYKVSNRLSGVPDRFSGSGSGTDFTLKISRVEAEDLGVYFCSQSTHVPYTFGGGTKLEIK    69500
2) F4.58.6 (antibody, human IgG1, V domains shown, human-murine chimeric antibody, human IgG1) VH: QVQLQQPGAELVKPGASVKLSCKASGYTFTSYWMHWVKQRPGQGLEWIGEIDPSDSYSNYNQKFKGKATLTVDKSSSTAYMQLSSLTSEDSAVYYCARSNYGSSYGYFDVWGAGTTVTVSS VL: QIVLTQSPAIMSASPGEKVTMTCSVSSSLSYMHWYQQKPGTSPKRWIYDTSKLASGVPARFSGSGSGTSYSLTISSMEAEDAATYYCHQRSSYPTFGGGTKLEIK    81
3) F4.41.1 (antibody, human IgG1, V domains shown, human-murine chimeric antibody, human IgG1) VH: QVQLQQSGAELVRPGTSVKVSCKASGYAFTNYLIEWVKQRPGQGLEWIGVINPGSGDTLYNEKFKGKATLTADKSSTTAYMQLSGLTSDVSAIYFCARSPPITTIVADYFDYWGQGTTLTVSS VL: DIQMTQTTSSLSASLGDRVTISCRASQDISNYLNWYQQKPDGTVKLLIYYTSRLHSGVPSRFSGSGSGADYSLTISNLEQEDIATYFCQQGKTLPYTFGGGTKLEIK    545
4) F4.82.11 (antibody, human IgG1, V domains shown, human-murine chimeric antibody, human IgG1) VH: QVTLKESGPGILQASQTLSLTCSFSGFSLSTFGIGVGWVRQPSGKGLEWLAHIWWNDNKFFNTTLKNRLTLSKDPSNNQVFLKIASVDTADTATYYCARSRSALITTGLYAMDYWGQGTSVTVSS VL: DIQMTQTPSSLSASLGDRVTISCRSSQDISNYVNWYQQKPDGTVKVLINYTSRLHSGVPSRFSGSGSGTDYSLTISNLEQEDIASYFCQQGFTLPYTFGGGTKLEIK    66600
5) F3.64.4 (antibody, human IgG1, V domains shown, human-murine chimeric antibody, human IgG1) VH: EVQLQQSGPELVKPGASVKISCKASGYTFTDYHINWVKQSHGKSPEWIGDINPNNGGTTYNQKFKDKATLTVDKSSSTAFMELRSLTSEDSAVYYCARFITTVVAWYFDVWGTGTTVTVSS VL: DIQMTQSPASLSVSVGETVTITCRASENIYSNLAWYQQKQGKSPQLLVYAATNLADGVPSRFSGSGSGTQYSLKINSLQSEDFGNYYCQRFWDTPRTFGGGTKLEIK    98400
6) F4.191.1 (antibody, human IgG1, V domains shown, human-murine chimeric antibody, human IgG1) VH: QVQLQQPGAELVRPGASVKLSCKASGYTFTSYWINWVKQRPGQGLEWIGNIHPSDSYTNYNQKFKDKATLTVDKSSSTAYMQFSSPTSEDSAVYYCTREDYYYGSNYDAMDYWGQGTSVTVSS VL: DIVMTQSHKFMSTSVGDRVNITCKASQDVGSSVAWYQQKPGQSPKLLIYWASTRHAGVPDRFTGSGSGADFTLTISNVQSEDLADYFCQQYSTYPLTFGAGTKLELK    59600
7) F3.121.4 (antibody, human IgG1, V domains shown, human-murine chimeric antibody, human IgG1) VH: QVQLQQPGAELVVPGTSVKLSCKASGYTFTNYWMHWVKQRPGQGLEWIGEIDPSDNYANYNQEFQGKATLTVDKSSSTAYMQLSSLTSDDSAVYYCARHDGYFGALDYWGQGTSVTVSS VL: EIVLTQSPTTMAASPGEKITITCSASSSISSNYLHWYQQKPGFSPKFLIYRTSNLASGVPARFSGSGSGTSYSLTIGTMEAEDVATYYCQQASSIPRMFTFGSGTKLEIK    80
